target: CYP2E1 (Rattus norvegicus, UniProt P05182, species not given); assay: Inhibition of chlorzoxazone 6-hydroxylation in CYP2E1 liver microsomes; conditions: human, microsomes, pH 7.4, pKi, Log (1/Ki), chlorzoxazone metabolism
Sequence (P05182 2-493): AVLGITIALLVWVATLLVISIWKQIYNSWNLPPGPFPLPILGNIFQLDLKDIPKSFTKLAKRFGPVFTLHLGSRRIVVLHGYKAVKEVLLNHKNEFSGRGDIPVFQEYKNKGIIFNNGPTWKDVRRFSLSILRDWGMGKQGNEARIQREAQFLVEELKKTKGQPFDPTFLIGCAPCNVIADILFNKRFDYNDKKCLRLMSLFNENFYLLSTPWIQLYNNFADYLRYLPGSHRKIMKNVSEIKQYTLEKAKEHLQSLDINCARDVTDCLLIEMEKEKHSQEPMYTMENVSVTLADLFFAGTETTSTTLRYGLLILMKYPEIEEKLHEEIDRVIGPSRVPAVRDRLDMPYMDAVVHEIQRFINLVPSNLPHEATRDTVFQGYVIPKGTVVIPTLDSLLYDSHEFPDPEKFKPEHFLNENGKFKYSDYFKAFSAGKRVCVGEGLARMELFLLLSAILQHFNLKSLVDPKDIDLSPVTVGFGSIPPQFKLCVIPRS
Readout: Ki at 10 min (µM)
Write the number in µM without appending the unit.

Sample records with Ki at 10 min:
Compound structure: c1ccc2ncccc2c1
Unit: µM
Ki at 10 min: 63.1
//
Compound structure: Cc1cccc(C)n1
Unit: µM
Ki at 10 min: 398

Q: Determine from records and report Ki at 10 min for c1ccncc1
Ans: 12.6

Q: Fill in Ki at 10 min for record O=[N+]([O-])c1c[nH]cn1
Ans: 12.6
